assay: Human HepG2 cell viability assay in 384 well format; assay type: toxicity, cell-based; set-up: dose 125 nL, time 70.5 hour; concentration not given beside the values; conditions: HepG2 cells, read-out: Inhibition
READOUT NAME: cytotoxicity at 70.5 h (%)
State just the number; it will be interpreted in %.

Observe how each entry below is paired with its result.
| COMPOUND | cytotoxicity at 70.5 h [%] |
| --- | --- |
| CC[C@@H]1N(CC2CC2)CCC[C@]12CCC(=O)N2 | -1.41 |
| COc1ccc(C(=O)NCC(C)(O)CCc2ccccc2)cc1 (stereo unspecified) | 3.78 |
| Cc1ncsc1C(=O)N1CCCC(c2cc(C(F)F)n3ncnc3n2)C1 (stereo unspecified) | 0.833 |
| Cc1ccc(Cn2c(=O)[nH]c3csnc3c2=O)cc1 | -13.9 |
| Cc1ccc(NC2CCN(C(=O)Cc3ccc(C#N)cc3)CC2)nn1 | -1.55 |

Entry under review: `COc1ccc(Cc2nc3c([nH]2)CC(C)(C)CNC3=O)c(OC)c1` . Reported cytotoxicity at 70.5 h? -9.23

Give its cytotoxicity at 70.5 h value. Item: O=C1OCCC1N1CCN(C(=O)Cc2c[nH]c3ccccc23)CC1 (stereo unspecified) 7.81

Returns the measured cytotoxicity at 70.5 h for the input compound. Input: CCCn1ncc(CN2CCCCC2CCCOC)c1C (stereo unspecified) -2.59

Name the reported cytotoxicity at 70.5 h value associated with the compound CC(=O)NCCC1CCCCN1S(=O)(=O)c1ccc2ccccc2c1 (stereo unspecified) 4.83

Fill in the blank: the reported cytotoxicity at 70.5 h of `O=C(c1ccccn1)N1C[C@@H]2CC[C@H](C1)N(C(=O)CCC1CCCC1)C2` is ____. -1.69

Tell me the measured cytotoxicity at 70.5 h of `N#Cc1cn[nH]c1NCc1cc(I)cc(I)c1O` , please. -9.83
